# System: Saccharomyces cerevisiae;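 also: PSI derived as read-weighted mean over the 8 sorting bins, only variants exceeding 10 total reads kept, mCherry placed adjacent to the peptide and sfGFP distal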
# Assay Protocol: protein stability index of tFT-peptide fusion in wild type (PSI (0-1 scale)); higher = more stable (slower turnover)
# Assay Context: genetic background: wild type
Hi there, I'd appreciate the recorded protein stability index for every entry that follows.
Answers are plain numbers.

Known protein stability index results, listed for orientation:
Monomer Sequence	Reading
FSMRWTFRYNVN	0.214
GLYMCSPGCWFR	0.246
AITLPQCPLLLR	0.293
LWILRQKMNHQN	0.124
RSLRVLWPLYFR	0.181
ARWRVGLWIGAS	0.367
RLIQPLPVQFLNK	0.647
CLVSLPILVFFR	0.0876
LKQLRQKMNHQN	0.212
LKILRQPMNHQN	0.658

Batch of 6 sequences: report protein stability index for each.
1. CKSCGYKFRTNN
2. FSMRWTHRYWVN
3. LKILRQKMNHQC
4. RSLRVLLPLYFRQ
5. AVVYLSCVACIN
6. GLYMCSVGCIFR

Reply |
1. 0.276
2. 0.0511
3. 0.184
4. 0.205
5. 0.0207
6. 0.587

Provide protein stability index values for the following items, in order.
1. RLIQPLPVQFLR
2. RAIQPLPVQFLN
3. SSLAASFWRVVG

Reply |
[0.668, 0.121, 0.16]

Please report protein stability index for every entry that follows.
1. ADWRVGLWRGAS
2. DSLAASFWRVVG

Reply |
[0.519, 0.135]

Okay, here is my list. What is protein stability index for each of these?
1. KKHKKQQKQKIN
2. FSMRWTFRYWVNN
3. FSMRWTFRIWVN
4. TSMRWTFRYWVN
5. LKILRQKMNLQN
6. VRGAVGIWRLVG
7. RVTRLDIIYFRI

Reply |
[0.0595, 0.137, 0.0523, 0.0899, 0.221, 0.156, 0.271]

List reported protein stability index for each of these sequences:
1. GLWMCSVGCWFR
2. RSLRVLLPLEFR
3. CTSCGYKFRTNNP
4. PSLAISFWRVVG

Reply |
[0.315, 0.601, 0.698, 0.127]

Hi team, please reply with protein stability index for each item in this list.
1. LRWRVGLWRGAS
2. RSLRVLNPLYFR
3. RTIQPLPVQFLN
4. RQLRVLLPLYFR
5. ARWNVGLWRGAS
6. AIFLPMCPLLLR
7. PDIRNHLIKLLN
8. PSLAASFWRVVGQ

Reply |
0.0917
0.359
0.101
0.216
0.322
0.278
0.134
0.649

Give protein stability index for all sequences that follow.
1. LVVYLSGVACIN
2. AITLPMCPLLLN
3. RSLRVLLPGYFR
4. YKILRQKMNHQN
5. CTVCGYKFRTNN
6. PDVRNHLIKLLN
7. LKILDQKMNHQN
8. FSMRWTFRYWVC

Reply |
[0.181, 0.135, 0.624, 0.196, 0.28, 0.119, 0.648, 0.0396]

State the recorded protein stability index for every item in the following list.
1. RSLRVLLPLYFL
2. LKILRQKMNWQN

Reply |
1. 0.319
2. 0.286
